RUN_PARAMETERS: in ethanol, 267.8 K
ATTRIBUTE_MEASURED: solubility (mole fraction)

{"columns": ["SMILES_STRING", "ATTRIBUTE_MEASURED", "MEAS_VALUE"],
 "data": [
  ["CC(=O)[O-].C[N+](C)(C)CCO", "solubility (mole fraction)", 0.143]
]}

----------
RUN_PARAMETERS: in n-propanol, 305.5 K

{"columns": ["SMILES_STRING", "solubility (mole fraction)"],
 "data": [
  ["C[N+](C)(C)CCOC(=O)CCC(=O)O.[Cl-]", 0.008]
]}

----------
RUN_PARAMETERS: in n-propanol, 324.6 K
ATTRIBUTE_MEASURED: solubility (mole fraction)

{"columns": ["SMILES_STRING", "MEAS_VALUE"],
 "data": [
  ["C[N+](C)(C)CCOC(=O)CCCC(=O)O.[Cl-]", 0.008]
]}
